Entries and their pest or weed control at 31 g/ha
Test system: pigweed (Amaranthus retroflexus)
Assay: Test A preemergence
Type: in vivo
Conditions: Amaranthus retroflexus, pre-emergence, 240 h, 31 g ai/ha, 0 to 100 scale (0 no effect, 100 complete control), read-out: Pigweed plant response rating

# STRUCTURE SMILES STRING, pest or weed control at 31 g/ha [%]
rows = [
    ("Fc1cnc(Oc2c(F)ccc(F)c2Oc2ncc(Cl)cn2)nc1", 50),
    ("N#Cc1cccc(Oc2ncc(Cl)cn2)c1Oc1ccc(Br)cn1", 80),
    ("FC(F)c1cnc(Oc2c(Br)cccc2Oc2ncc(Cl)cn2)s1", 90),
    ("N#Cc1cccc(Oc2ncc(Cl)cn2)c1Oc1cnc(Cl)cn1", 100),
    ("FCc1cccc(Oc2ncc(Cl)cn2)c1Oc1ncc(Cl)cn1", 100),
    ("N#Cc1cccc(Oc2ncc(Cl)cn2)c1Oc1ccccc1Cl", 0),
]

* * *

System: galium (catchweed bedstraw, Galium aparine)
Test: Test A postemergence
Format: in vivo
Conditions: Galium, post-emergence, 240 h, 31 g ai/ha, 0 to 100 scale, read-out: Plant response rating, Galium
Entries and their pest or weed control at 31 g/ha

# STRUCTURE SMILES STRING, pest or weed control at 31 g/ha (%)
records = [
    ("N#Cc1cccc(Oc2ncc(Br)cn2)c1Oc1ccc(Br)cn1", 10),
    ("Fc1cnc(Oc2c(F)ccc(F)c2Oc2ncc(F)cn2)nc1", 100),
    ("Fc1cnc(Oc2c(F)ccc(F)c2Oc2ncc(Cl)cn2)nc1", 20),
    ("N#Cc1cccc(Oc2ncc(Cl)cn2)c1Oc1cnc(Cl)cn1", 90),
    ("N#Cc1cccc(Oc2ncc(Br)cn2)c1Oc1cccnc1", 10),
    ("N#Cc1cccc(Oc2ncc(Cl)cn2)c1Oc1ccc(Br)cn1", 50),
    ("N#Cc1cccc(Oc2ncc(Cl)cn2)c1Oc1cccnc1", 10),
    ("FCc1cccc(Oc2ncc(Cl)cn2)c1Oc1ncc(Cl)cn1", 70),
    ("N#Cc1cccc(Oc2ncc(Cl)cn2)c1Oc1ccccc1Cl", 0),
]

* * *

Entries and their pest or weed control at 16 g/ha
Test system: blackgrass (Alopecurus myosuroides)
Assay: Test C postemergence
Assay type: in vivo
Conditions: Alopecurus myosuroides, post-emergence, 336 h; Postemergence, 16 g ai/ha, scale 0 to 100; read-out: Plant response rating, Blackgrass

# STRUCTURE SMILES STRING, STUDY TARGET, pest or weed control at 16 g/ha (%)
rows = [
    ("N#Cc1cccc(Oc2ncc(Cl)cn2)c1Oc1ccc(Cl)cc1", "blackgrass (Alopecurus myosuroides)", 5),
    ("N#Cc1cccc(Oc2ncc(Cl)cn2)c1Oc1ncc(Br)cn1", "blackgrass (Alopecurus myosuroides)", 0),
    ("N#Cc1cccc(Oc2ncc(Cl)cn2)c1Oc1ncc(C(F)(F)F)cn1", "blackgrass (Alopecurus myosuroides)", 0),
    ("N#Cc1cccc(Oc2ncc(Cl)cn2)c1Oc1cnc(Cl)cn1", "blackgrass (Alopecurus myosuroides)", 5),
    ("Fc1ccc(F)c(Oc2ncc(Cl)cn2)c1Oc1ncc(Cl)cn1", "blackgrass (Alopecurus myosuroides)", 0),
    ("N#Cc1cccc(Oc2ncc(Cl)cn2)c1Oc1ccc(Cl)cn1", "blackgrass (Alopecurus myosuroides)", 5),
    ("Fc1cnc(Oc2c(F)ccc(F)c2Oc2ncc(F)cn2)nc1", "blackgrass (Alopecurus myosuroides)", 0),
]

* * *

Test system: giant foxtail (Setaria faberii)
Assay: Test A preemergence
Type: in vivo
Settings: 31 g ai/ha, 0 to 100 scale (0 no effect, 100 complete control)
Excerpt: […]

# STRUCTURE SMILES STRING, Foxtail, Giant plant response rating
data = [
    ("N#Cc1cccc(Oc2ncc(Cl)cn2)c1Oc1ccc(C(F)(F)F)cn1", 0),
    ("N#Cc1cccc(Oc2ncc(C(F)(F)F)cn2)c1Oc1ncc(C(F)(F)F)cn1", 30),
    ("Fc1ccc(F)c(Oc2ncc(C(F)(F)F)cn2)c1Oc1ncc(Cl)cn1", 50),
    ("Fc1ccc(F)c(Oc2ncc(C(F)(F)F)cn2)c1Oc1ncc(C(F)(F)F)cn1", 10),
]

* * *

System: arrowleaf sida (Sida rhombifolia)
Assay: Test E preemergence
Assay type: in vivo
Settings: 31 g ai/ha, scale 0 to 100
Entries and their Plant response rating, Arrowleaf Sida
READOUT KIND: Plant response rating, Arrowleaf Sida

# MOLECULE, OBSERVED VALUE
records = [
    ("Fc1ccc(F)c(Oc2ncc(Cl)cn2)c1Oc1ncc(Cl)cn1 [Compound 34]", 80),
    ("Clc1cnc(Oc2cccc(Br)c2Oc2ncc(Cl)cn2)nc1 [Compound 19]", 40),
    ("Fc1cccc(Oc2ncc(Cl)cn2)c1Oc1ncc(C(F)(F)F)cn1 [Compound 43]", 100),
    ("N#Cc1cccc(Oc2ncc(Cl)cn2)c1Oc1ncc(C(F)(F)F)cn1 [Compound 38]", 50),
    ("Fc1cccc(Oc2ncc(Cl)cn2)c1Oc1ncc(Cl)cn1 [Compound 21]", 100),
]

* * *

Entries and their pest or weed control at 1000 g/ha
Tested on: blackgrass (Alopecurus myosuroides)
Assay: Test A postemergence
Type: in vivo
Conditions: Alopecurus myosuroides, post-emergence, 240 h, 1000 g ai/ha, 0 to 100 scale, read-out: Plant response rating, Blackgrass
Excerpt: […]

# STRUCTURE SMILES STRING, STUDY TARGET, QUANTITY UNIT, pest or weed control at 1000 g/ha
rows = [
    ("Fc1cccc(Oc2ncc(Cl)cn2)c1Oc1ncc(Br)cn1", "blackgrass (Alopecurus myosuroides)", "%", 80),
    ("Fc1cnc(Oc2c(Cl)cccc2Oc2ncc(Cl)cn2)nc1", "blackgrass (Alopecurus myosuroides)", "%", 100),
    ("Clc1cnc(Oc2cccc(Cl)c2Oc2ncc(Br)cn2)nc1", "blackgrass (Alopecurus myosuroides)", "%", 100),
    ("Fc1cccc(Oc2ncc(Cl)cn2)c1Oc1ccc(Cl)nc1", "blackgrass (Alopecurus myosuroides)", "%", 60),
]

* * *

Entries and their pest or weed control at 62 g/ha
System: barnyardgrass (Echinochloa crus-galli)
Assay: Test C preemergence
Format: in vivo
Details: Echinochloa crus-galli, pre-emergence; 62 g ai/ha, preemergence; scale 0 to 100; read-out: Plant response rating, Barnyardgrass
Text: […]
READOUT KIND: pest or weed control at 62 g/ha (%)

# COMPOUND, QUANTITY UNIT, OBSERVED VALUE
data = [
    ("Fc1ccc(F)c(Oc2ncc(Cl)cn2)c1Oc1ncc(Cl)cn1 [Compound 34]", "%", 85),
    ("Fc1cccc(Oc2ncc(Cl)cn2)c1Oc1ncc(Cl)cn1 [Compound 21]", "%", 100),
    ("N#Cc1cccc(Oc2ncc(Br)cn2)c1Oc1ncc(Cl)cn1 [Compound 5]", "%", 85),
    ("Fc1cnc(Oc2c(Cl)cccc2Oc2ncc(Cl)cn2)nc1 [Compound 18]", "%", 100),
]

* * *

Entries and their pest or weed control at 62 g/ha
Test system: blackgrass (Alopecurus myosuroides)
Assay: Test C postemergence
Type: in vivo
Settings: Alopecurus myosuroides, post-emergence, 336 h; Postemergence, 62 g ai/ha, scale 0 to 100; read-out: Plant response rating, Blackgrass
READOUT KIND: pest or weed control at 62 g/ha (%)

# STRUCTURE SMILES STRING, STUDY TARGET, READOUT KIND, OBSERVED VALUE
records = [
    ("Fc1cccc(Oc2ncc(C(F)(F)F)cn2)c1Oc1ncc(Cl)cn1", "blackgrass (Alopecurus myosuroides)", "pest or weed control at 62 g/ha", 20),
    ("N#Cc1cccc(Oc2ncc(C(F)(F)F)cn2)c1Oc1ncc(Cl)cn1", "blackgrass (Alopecurus myosuroides)", "pest or weed control at 62 g/ha", 15),
    ("Fc1cnc(Oc2c(Br)cccc2Oc2ncc(Cl)cn2)nc1", "blackgrass (Alopecurus myosuroides)", "pest or weed control at 62 g/ha", 5),
    ("N#Cc1cccc(Oc2ncc(Cl)cn2)c1Oc1ncc(Br)cn1", "blackgrass (Alopecurus myosuroides)", "pest or weed control at 62 g/ha", 0),
    ("Clc1cnc(Oc2cccc(Cl)c2Oc2ncc(Br)cn2)nc1", "blackgrass (Alopecurus myosuroides)", "pest or weed control at 62 g/ha", 5),
    ("N#Cc1cccc(Oc2ncc(Cl)cn2)c1Oc1ncc(C(F)(F)F)cn1", "blackgrass (Alopecurus myosuroides)", "pest or weed control at 62 g/ha", 10),
]

* * *

System: barnyardgrass (Echinochloa crus-galli)
Test: Test C postemergence
Type: in vivo
Conditions: Echinochloa crus-galli, post-emergence; Postemergence, 125 g ai/ha, scale 0 to 100; read-out: Plant response rating, Barnyardgrass
Entries and their pest or weed control at 125 g/ha

# MOLECULE, STUDY TARGET, QUANTITY UNIT, pest or weed control at 125 g/ha
rows = [
    ("Fc1cccc(Oc2ncc(Cl)cn2)c1Oc1ncc(Br)cn1 [Compound 27]", "barnyardgrass (Echinochloa crus-galli)", "%", 5),
    ("N#Cc1cccc(Oc2ncc(Cl)cn2)c1Oc1cnc(Cl)cn1 [Compound 32]", "barnyardgrass (Echinochloa crus-galli)", "%", 30),
    ("N#Cc1cccc(Oc2ncc(Cl)cn2)c1Oc1ncc(Br)cn1 [Compound 4]", "barnyardgrass (Echinochloa crus-galli)", "%", 5),
    ("N#Cc1cccc(Oc2ncc(Cl)cn2)c1Oc1ccc(Cl)cn1 [Compound 16]", "barnyardgrass (Echinochloa crus-galli)", "%", 20),
    ("Fc1cnc(Oc2c(Cl)cccc2Oc2ncc(Cl)cn2)nc1 [Compound 18]", "barnyardgrass (Echinochloa crus-galli)", "%", 5),
    ("Fc1cccc(Oc2ncc(Cl)cn2)c1Oc1ncc(C(F)(F)F)cn1 [Compound 43]", "barnyardgrass (Echinochloa crus-galli)", "%", 35),
]
